Kindly supply the reported Avg. large intestine tumors/mouse values for the records listed here.
System: Min/+ mouse model of intestinal cancer
Experiment: Intestinal polyp formation in the Min/+ mouse model of intestinal cancer
Format: in vivo
Details: Min/+ mice; 10 g/day human equivalent dose (3% wt.) or sulindac 320 ppm; seven weeks; mean ± SEM
Marks after values point to notes of the source that are not given here.

Kindly note the recorded Avg. large intestine tumors/mouse for CC/C=C\C/C=C\C/C=C\C/C=C\CCCCC(=O)O , which is 0.2 ± 0.1^d

Entry CCCCC/C=C\C/C=C\C/C=C\CCCCC(=O)O ; Avg. large intestine tumors/mouse = 1.2 ± 0.4^abc

// sample CC/C=C\C/C=C\C/C=C\C/C=C\C/C=C\C/C=C\CCC(=O)O , its Avg. large intestine tumors/mouse was 1.8 ± 0.4^a

Avg. large intestine tumors/mouse reported for this compound CC1=C(CC(=O)O)c2cc(F)ccc2/C1=C\c1ccc([S+](C)[O-])cc1 (centres unmarked) : 0.2 ± 0.2^cd

Consider CC/C=C\C/C=C\C/C=C\C/C=C\C/C=C\CCCC(=O)O . Its measured Avg. large intestine tumors/mouse is 0.9 ± 0.3^abcd

Sourced from patent US6340705B1
